Biological target: MMP-3h (Homo sapiens (Human))
Sequence (P08254 100-477): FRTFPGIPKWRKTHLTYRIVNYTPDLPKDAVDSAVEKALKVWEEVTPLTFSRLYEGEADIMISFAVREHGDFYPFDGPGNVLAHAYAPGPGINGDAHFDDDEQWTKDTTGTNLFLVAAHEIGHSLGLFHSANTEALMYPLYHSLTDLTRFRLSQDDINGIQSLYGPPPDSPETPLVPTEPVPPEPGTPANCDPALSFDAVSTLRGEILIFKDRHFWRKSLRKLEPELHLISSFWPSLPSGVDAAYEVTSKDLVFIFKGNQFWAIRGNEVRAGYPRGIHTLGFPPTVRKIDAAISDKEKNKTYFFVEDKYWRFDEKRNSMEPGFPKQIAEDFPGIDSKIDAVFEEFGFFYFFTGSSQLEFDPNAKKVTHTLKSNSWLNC
Test: Inhibition constant (Ki) on MMP-3h
Assay type: biochemical
Conditions: read-out: Ki MMP-3h; human MMP-3
Description: The inhibition constant Ki of these compounds has been determined according to the protocol described by Devel et al, 2006, J. Biol. Chem. (7). In this table I and also in table II below, “h” corresponds to human. All of the compounds have therefore been evaluated on human MMPs.
pKi: −log10 of the molar value.
property-name: pKi

Previously resolved entries follow.
- compound: "CC(C)C[C@H](NC(=O)[C@H](CCC(=O)O)NC(=O)CCc1ccc(-c2ccccc2)cc1)C(N)=O [Compound 50]"
  pKi: "< 4.30"
- compound: "NCCCC[C@H](NC(=O)[C@H](CCC(=O)O)NC(=O)CCc1ccc(-c2ccccc2)cc1)C(N)=O [Compound 44]"
  pKi: "< 5.00"
- compound: "NC(=O)[C@H](Cc1ccc(O)cc1)NC(=O)[C@H](CCC(=O)O)NC(=O)CCc1ccc(-c2cccs2)cc1 [Compound 84]"
  pKi: "< 5.30"
- compound: "NC(=O)[C@H](CCC(=O)O)NC(=O)[C@H](CCC(=O)O)NC(=O)CCc1ccc(COc2ccccc2)cc1 [Compound 29]"
  pKi: "< 5.00"
- compound: "NC(=O)[C@H](CCC(=O)O)NC(=O)[C@H](CCC(=O)O)NC(=O)CCc1ccc(-c2cc(Cl)cc(Cl)c2)cc1 [Compound 58]"
  pKi: "< 6.00"
- compound: "NC(=O)[C@H](CCC(=O)O)NC(=O)[C@H](CCC(=O)O)NC(=O)CCc1ccc(-c2ncccn2)cc1 [Compound 32]"
  pKi: "< 6.00"
- compound: "NC(=O)[C@H](CCC(=O)O)NC(=O)CCc1ccc(-c2cc(-c3ccccc3)cs2)cc1 [Compound 105]"
  pKi: "< 6.00"
- compound: "NC(=O)[C@H](CCC(=O)O)NC(=O)[C@H](CCC(=O)O)NC(=O)CCc1ccc(C#Cc2ccccc2)cc1 [Compound 30]"
  pKi: "< 6.00"
- compound: "C[C@H](NC(=O)[C@H](CCC(=O)O)NC(=O)CCc1ccc(-c2ccccc2)cc1)C(N)=O [Compound 47]"
  pKi: "< 5.00"
- compound: "C[C@H](NC(=O)[C@H](CCC(=O)O)NC(=O)CCc1ccc(-c2ccc(-c3ccccc3)cc2)cc1)C(N)=O [Compound 66]"
  pKi: 6.62

Items follow; give pKi for each.
1. NC(=O)[C@H](Cc1c[nH]cn1)NC(=O)[C@H](CCC(=O)O)NC(=O)CCc1ccc(-c2ccc(-c3ccccc3)cc2)cc1 [Compound 67]
2. NC(=O)[C@H](CCC(=O)O)NC(=O)[C@H](CCC(=O)O)NC(=O)CCc1ccc(-c2cccc(Cl)c2)cc1 [Compound 57]
3. NCCCC[C@H](NC(=O)[C@H](CCC(=O)O)NC(=O)CCc1ccc(-c2cccs2)cc1)C(N)=O [Compound 82]
4. NC(=O)[C@H](CCC(=O)O)NC(=O)[C@H](CCC(=O)O)NC(=O)CCc1ccc(I)cc1 [Compound 31]
5. NC(=O)CC[C@H](NC(=O)CCc1cc(-c2ccc(-c3ccccc3)cc2)no1)C(=O)N[C@@H](CCC(=O)O)C(N)=O [Compound 20]
6. NC(=O)[C@H](CCC(=O)O)NC(=O)[C@H](CCC(=O)O)NC(=O)CCc1ccc(-c2cccc(CO)c2)cc1 [Compound 60]
7. CC(C)C[C@H](NC(=O)CCc1ccc(-c2ccc(-c3ccccc3)cc2)cc1)C(=O)N[C@@H](CCC(=O)O)C(N)=O [Compound 79]
8. NC(=O)[C@H](CCC(=O)O)NC(=O)[C@H](CC(=O)O)NC(=O)CCc1cc(-c2ccc(-c3ccccc3)cc2)no1 [Compound 17]

Return:
6.47
< 5.00
< 5.00
< 5.30
< 6.00
< 5.00
6.69
6.16

Enquiry: Identify pKi associated with the compound NC(=O)[C@H](CCC(=O)O)NC(=O)[C@H](CCC(=O)O)NC(=O)CCc1ccc(Oc2ccccc2)cc1 [Compound 28]
Return: < 5.30

====

Give measured pKi for each item. Keep answers brief.
target: MMP-8h (Homo sapiens (Human), UniProt P22894); experiment: Inhibition constant (Ki) on MMP-8h; format: biochemical; conditions: human MMP-8
Sequence (P22894 101-467): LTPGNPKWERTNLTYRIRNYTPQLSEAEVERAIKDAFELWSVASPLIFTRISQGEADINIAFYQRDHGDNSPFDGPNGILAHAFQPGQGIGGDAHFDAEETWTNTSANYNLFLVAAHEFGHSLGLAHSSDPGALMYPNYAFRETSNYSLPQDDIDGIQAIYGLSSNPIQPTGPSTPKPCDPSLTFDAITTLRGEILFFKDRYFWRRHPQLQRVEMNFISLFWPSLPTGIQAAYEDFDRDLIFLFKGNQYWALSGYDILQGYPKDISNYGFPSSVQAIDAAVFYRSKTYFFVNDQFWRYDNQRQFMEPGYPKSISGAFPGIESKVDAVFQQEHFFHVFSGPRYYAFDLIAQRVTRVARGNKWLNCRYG
pKi: −log10 of the molar value.

// input: 5 compounds below; output: pKi for each
1. NC(=O)[C@H](CCC(=O)O)NC(=O)[C@H](CCC(=O)O)NC(=O)CCc1ccc(-c2cccc([N+](=O)[O-])c2)cc1
2. NC(=O)CC[C@H](NC(=O)CCc1ccc(-c2ccc(-c3ccccc3)cc2)cc1)C(=O)N[C@@H](CCC(=O)O)C(N)=O
3. NC(=O)[C@H](CCC(=O)O)NC(=O)[C@H](CCCC(=O)O)NC(=O)CCc1ccc(-c2cc(-c3ccccc3)cs2)cc1
4. NC(=O)[C@H](CCC(=O)O)NC(=O)[C@H](CCC(=O)O)NC(=O)CCc1ccc(-c2nccs2)cc1
5. NC(=O)[C@H](CCC(=O)O)NC(=O)[C@H](CCCC(=O)O)NC(=O)CCc1cc(-c2ccc(-c3cccc(Cl)c3)cc2)no1

Return:
1: < 6.00; 2: < 6.00; 3: < 5.30; 4: < 6.00; 5: < 6.00

====

target: MMP-10h (Homo sapiens (Human), UniProt P09238); assay: Inhibition constant (Ki) on MMP-10h; type: biochemical; conditions: read-out: Ki MMP-10h; human MMP-10
Sequence (P09238 99-476): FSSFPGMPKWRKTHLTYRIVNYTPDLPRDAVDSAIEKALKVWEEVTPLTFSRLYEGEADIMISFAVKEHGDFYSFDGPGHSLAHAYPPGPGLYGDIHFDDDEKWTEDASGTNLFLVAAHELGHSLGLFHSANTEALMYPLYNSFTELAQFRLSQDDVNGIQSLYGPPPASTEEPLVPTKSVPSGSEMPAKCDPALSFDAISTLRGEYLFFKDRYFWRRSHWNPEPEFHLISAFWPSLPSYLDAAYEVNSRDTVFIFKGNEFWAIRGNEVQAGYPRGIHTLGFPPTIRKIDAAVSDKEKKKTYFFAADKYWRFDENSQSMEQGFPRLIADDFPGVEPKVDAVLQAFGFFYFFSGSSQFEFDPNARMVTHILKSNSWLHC
pKi: −log10 of the molar value.
property-name: pKi

- compound: "NC(=O)[C@H](CCC(=O)O)NC(=O)[C@H](CCC(=O)O)NC(=O)CCc1ccc(-c2cccc(C(=O)O)c2)cc1 [Compound 56]"
  pKi: "< 5.00"

Parameters: items (list). Returns: pKi for each item.
1. C[C@H](NC(=O)[C@H](CCC(=O)O)NC(=O)CCc1ccc(-c2cccs2)cc1)C(N)=O [Compound 85]
2. O=C(O)CC[C@H](NC(=O)CCc1ccc(-c2cc(-c3ccccc3)cs2)cc1)C(=O)Nc1cccc(CC(=O)O)c1 [Compound 106]
3. NC(=O)[C@H](CCC(=O)O)NC(=O)[C@H](CCC(=O)O)NC(=O)CCc1ccc(I)cc1 [Compound 31]
4. NC(=O)[C@@H](CCC(=O)O)NC(=O)[C@@H](CCC(=O)O)NC(=O)CCc1cc(-c2ccc(-c3cccc(Cl)c3)cc2)no1 [Compound 7]
5. NC(=O)[C@H](CCC(=O)O)NC(=O)[C@H](CCC(=O)O)NC(=O)CCc1ccc(-c2cccc(CO)c2)cc1 [Compound 60]

Return:
6.08
6.50
< 6.00
6.95
< 5.30

Please look at the items below and tell me pKi for each one, in order.
1. NC(=O)[C@H](CCC(=O)O)NC(=O)[C@H](Cc1ccc(O)cc1)NC(=O)CCc1ccc(-c2ccc(-c3ccccc3)cc2)cc1 [Compound 75]
2. NC(=O)CC[C@H](NC(=O)CCc1cc(-c2ccc(-c3ccccc3)cc2)no1)C(=O)N[C@@H](CCC(=O)O)C(N)=O [Compound 20]

Return:
["< 6.00", "< 5.30"]

State the recorded pKi for every item in the following list.
1. NC(=O)[C@H](CCC(=O)O)NC(=O)CCc1ccc(-c2cc(-c3ccccc3)cs2)cc1 [Compound 105]
2. NC(=O)CC[C@H](NC(=O)[C@H](CCC(=O)O)NC(=O)CCc1ccc(-c2cc(-c3ccccc3)cs2)cc1)C(N)=O [Compound 99]

Return:
1: < 6.00; 2: < 6.00

Would you mind listing pKi for each of the following compounds?
1. NC(=O)[C@H](CCC(=O)O)NC(=O)[C@H](CCC(=O)O)NC(=O)CCc1ccc(COc2ccccc2)cc1 [Compound 29]
2. O=C(O)CC[C@H](NC(=O)CCc1ccc(-c2cccs2)cc1)C(=O)N1CCC[C@@H](CC(=O)O)C1 [Compound 89]
3. NC(=O)[C@H](Cc1c[nH]cn1)NC(=O)[C@H](CCC(=O)O)NC(=O)CCc1ccc(-c2cccs2)cc1 [Compound 86]

Return:
1: < 6.00; 2: < 5.30; 3: < 6.00

====

Would you kindly list pKi for each of these compounds?
target: UniProtKB P45452; assay: Inhibition constant (Ki) on MMP-13h; assay type: biochemical; details: read-out: Ki MMP-13h; human MMP-13
One number for each entry, as −log10 of the molar value.

Example cases with answers are listed next.
- compound: "NC(=O)[C@H](CCC(=O)O)NC(=O)[C@H](CCC(=O)O)NC(=O)CCc1ccc(-c2cccs2)cc1 [Compound 80]"
  pKi: 6.49
- compound: "NC(=O)[C@H](CCC(=O)O)NC(=O)[C@@H](CCC(=O)O)NC(=O)CCc1cc(-c2ccc(-c3cccc(Cl)c3)cc2)no1 [Compound 6]"
  pKi: 6.63
- compound: "NC(=O)CC[C@H](NC(=O)[C@H](CCC(N)=O)NC(=O)CCc1ccc(-c2ccccc2)cc1)C(N)=O [Compound 43]"
  pKi: 6.59
- compound: "NC(=O)[C@H](CCC(=O)O)NC(=O)[C@H](CCC(=O)O)NC(=O)CCc1csc(-c2ccccc2)n1 [Compound 27]"
  pKi: 6.05
- compound: "NC(=O)CC[C@H](NC(=O)[C@H](CCC(=O)O)NC(=O)CCc1ccc(-c2ccc(-c3ccccc3)cc2)cc1)C(N)=O [Compound 62]"
  pKi: 7.70

Now, please, on to the next compound.
Enquiry: State, in one line, measured pKi of NC(=O)[C@H](CCCC(=O)O)NC(=O)[C@H](CCC(=O)O)NC(=O)CCc1ccc(-c2cc(-c3ccccc3)cs2)cc1 [Compound 103]
Return: 6.25
